# Experimental Details: Inhibition of GST tagged PDE2 (unknown origin) assessed as reduction in FAM-cAMP hydrolysis pre-incubated for 5 mins before FAM-cAMP addition and measured after 30 mins by IMAP assay
# Design: species or system Homo sapiens
Assay Endpoint: pIC50

So, CNC(=O)c1ccc2nc(C)c3nnc(-c4cc(F)ccc4Cl)n3c2c1 ? Its pIC50 was 8.69

So, COc1ccc(Cl)c(-c2nnc3c(C)nc4ccc(C(=O)NC(C)(C)C)cc4n23)c1 ? Its pIC50 was 9

So, Cc1nc2ccc(C(=O)NC(C)C)cc2n2c(-c3cc(OCC(C)C)ccc3Cl)nnc12 ? Its pIC50 was 9.46

So, Cc1nc2ccc(C(=O)NCC(C)C)cc2n2c(-c3ccccc3Cl)nnc12 ? Its pIC50 was 9.52

So, Cc1nc2ccc(C(=O)NC34CC5CC(CC(C5)C3)C4)cc2n2c(-c3cc(OCC(C)C)ccc3Cl)nnc12 ? Its pIC50 was 7.74

---

# Experimental Details: Inhibition of GST tagged PDE2 (unknown origin) assessed as reduction in FAM-cAMP hydrolysis pre-incubated for 5 mins before FAM-cAMP addition and measured after 30 mins by IMAP assay
# Parameters: species or system Homo sapiens
List of pIC50 values.
# output: bare number, no unit

Consider the following illustrative entries.
Cc1nc2ccc(C(=O)NC(C)C)cc2n2c(-c3cc(OC(C)C)ccc3Cl)nnc12 | 8.99
Cc1nc2ccc(C(=O)NC(C)(C)C)cc2n2c(-c3ccccc3Cl)nnc12 | 9.47
Cc1nc2ccc(C(=O)NC34CC5CC(CC(C5)C3)C4)cc2n2c(-c3cc(F)ccc3Cl)nnc12 | 9.58
Cc1nc2ccc(C(=O)NCC(C)C)cc2n2c(-c3cc(F)ccc3Cl)nnc12 | 9.37

So, Cc1nc2ccc(C(=O)NC(C)C)cc2n2c(-c3ccccc3Cl)nnc12 ? Its pIC50 was 9.57

---

# Experimental Details: Inhibition of GST tagged PDE2 (unknown origin) assessed as reduction in FAM-cAMP hydrolysis pre-incubated for 5 mins before FAM-cAMP addition and measured after 30 mins by IMAP assay
# Design: species or system Homo sapiens
Assay Endpoint: pIC50
# output: bare number, no unit

Consider the following illustrative entries.
COc1ccc(Cl)c(-c2nnc3c(C)nc4ccc(C(=O)NC56CC7CC(CC(C7)C5)C6)cc4n23)c1 | 9.49
Cc1nc2ccc(C(=O)NC(C)C)cc2n2c(-c3cc(F)ccc3Cl)nnc12 | 9.17
Cc1nc2ccc(C(=O)NC34CC5CC(CC(C5)C3)C4)cc2n2c(-c3cc(OC(C)C)ccc3Cl)nnc12 | 7.94

So, CNC(=O)c1ccc2nc(C)c3nnc(-c4cc(OC(C)C)ccc4Cl)n3c2c1 ? Its pIC50 was 9.16

So, COc1ccc(Cl)c(-c2nnc3c(C)nc4ccc(C(=O)NC(C)C)cc4n23)c1 ? Its pIC50 was 8.96

---

List of pIC50 values.
# Experimental Details: Inhibition of GST tagged PDE2 (unknown origin) assessed as reduction in FAM-cAMP hydrolysis pre-incubated for 5 mins before FAM-cAMP addition and measured after 30 mins by IMAP assay
# Design: species or system Homo sapiens
# output: bare number, no unit

Consider the following illustrative entries.
Cc1nc2ccc(C(=O)NCC(C)C)cc2n2c(-c3cc(OCC(C)C)ccc3Cl)nnc12 | 9.29
Cc1nc2ccc(C(=O)NC(C)C)cc2n2c(-c3cc(OC(C)(C)C)ccc3Cl)nnc12 | 9.1
Cc1nc2ccc(C(=O)NC34CC5CC(CC(C5)C3)C4)cc2n2c(-c3cc(OC(C)(C)C)ccc3Cl)nnc12 | 7.58
CNC(=O)c1ccc2nc(C)c3nnc(-c4cc(OC)ccc4Cl)n3c2c1 | 8.74
Cc1nc2ccc(C(=O)NCC(C)C)cc2n2c(-c3cc(OC(C)C)ccc3Cl)nnc12 | 8.93

So, CNC(=O)c1ccc2nc(C)c3nnc(-c4cc(OCC(C)C)ccc4Cl)n3c2c1 ? Its pIC50 was 9.61

So, Cc1nc2ccc(C(=O)NC(C)(C)C)cc2n2c(-c3cc(OCC(C)C)ccc3Cl)nnc12 ? Its pIC50 was 8.75

So, Cc1nc2ccc(C(=O)NC(C)(C)C)cc2n2c(-c3cc(OC(C)C)ccc3Cl)nnc12 ? Its pIC50 was 8.3
